target-system: T1, PARP4 BRCT WT (human, UniProt Q9UKK3 1-100)
T1 sequence: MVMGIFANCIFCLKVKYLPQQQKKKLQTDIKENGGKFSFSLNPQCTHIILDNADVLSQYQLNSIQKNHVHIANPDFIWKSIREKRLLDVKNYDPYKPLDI
method: EMSA; 20 nM probe; FP: 50 mM Tris pH 7.5, 50 mM NaCl, 1 mM MgCl2, 0.05% NP40, 2 mM DTT, 5% glycerol, 25 ug/ml BSA, room temp 30 min; EMSA: 50 mM Tris pH 7.5, 50 mM NaCl, 4% Ficoll PM400, 0.05% NP40, 2 mM DTT, 0-18 uM protein, room temp 30 min, gel at 4 C
run-parameters: protein: recombinant; tags: N-terminal His-SUMO removed by TEV; label: 5'-6-FAM; predicted intramolecular fold
pKd: −log10 of the molar value.

| binder | pKd |
| --- | --- |
| vtRNA1-3 (structured_RNA) RNA: GGCUGGCUUUAGCUCAGCGGUUACUUCGCGUGUCAUCAAACCACCUCUCUGGGUUGUUCGAGACCCGCGGGCGCUCUCCAGCCCUCUU | 6.30 |

Value source: paper PMC12212138
